The measured values listed here are drawn from the supplement of paper PMC11061612.

Test system: NTERA-2-cl-D1 (Other Solid Carcinomas)
Experiment: Bliss excess, mean over the matrix (fraction); higher = more synergy
Measurement label: Bliss excess
Answers are plain numbers.

{"Compound": "COc1nnc2ccc(N3CCC(c4ccc(OCCN5CCN(C)C(=O)[C@H]5C)cc4)CC3)nn12 [AZD5153] + CC1(C)CCC(CN2CCN(c3ccc(C(=O)NS(=O)(=O)c4ccc(NCC5CCOCC5)c([N+](=O)[O-])c4)c(Oc4cnc5[nH]ccc5c4)c3)CC2)=C(c2ccc(Cl)cc2)C1 [Venetoclax] (first compound max 1 µM, 7x7, partner max 1 µM)", "Bliss excess": -0.0251}

Next up:
### Prompt Give recorded Bliss excess. C[C@@H](Oc1cc(-c2cnn(C3CCNCC3)c2)cnc1N)c1c(Cl)ccc(F)c1Cl [Crizotinib] + CC1=C(C(=CC=C1)Cl)NC(=O)C2=CN=C(S2)NC3=CC(=NC(=N3)C)N4CCN(CC4)CCO [Dasatinib] (first compound max 10 µM, 7x7, partner max 2 µM)
### Response 0.0073

* * *

Tested on: NCI-H1435 (Non-Small Cell Lung Carcinoma)
Test: Bliss excess, mean over the matrix (fraction); higher = more synergy
Provide the reported Bliss excess of each item.
Answers are plain numbers.

Example entries begin here.
{"Compound": "O=C(c1cc(Cc2n[nH]c(=O)c3ccccc23)ccc1F)N1CCN(C(=O)C2CC2)CC1 [Olaparib] + CC1(C)CCC(CN2CCN(c3ccc(C(=O)NS(=O)(=O)c4ccc(NCC5CCOCC5)c([N+](=O)[O-])c4)c(Oc4cnc5[nH]ccc5c4)c3)CC2)=C(c2ccc(Cl)cc2)C1 [Venetoclax] (first compound max 10 µM, 7x7, partner max 1 µM)", "Number": -0.01}
{"Compound": "Cc1c2c(nn1C)CSCc1cc(n(C)n1)CSc1cc(c3ccccc3c1)OCCCc1c(C(=O)O)n(C)c3c-2c(Cl)ccc13 [AZD5991] + CC(=O)O[C@H]1C(=O)[C@@]2(C)[C@H]([C@H](OC(=O)c3ccccc3)[C@]3(O)C[C@H](OC(=O)[C@H](O)[C@@H](NC(=O)c4ccccc4)c4ccccc4)C(C)=C1C3(C)C)[C@]1(OC(C)=O)CO[C@@H]1C[C@@H]2O [Paclitaxel] (first compound max 1 µM, 7x7, partner max 3 µM)", "Number": 0.0254}

Next up:
### Prompt Give recorded Bliss excess. C[C@@H]1COCCN1c1cc(C2([S@](C)(=N)=O)CC2)nc(-c2ccnc3[nH]ccc23)n1 [AZD6738] + O=C(c1cc(Cc2n[nH]c(=O)c3ccccc23)ccc1F)N1CCN(C(=O)C2CC2)CC1 [Olaparib] (first compound max 10 µM, 7x7, partner max 10 µM)
### Response 0.0203

* * *

Provide the reported combination Emax of each item.
Test system: C32 (Melanoma)
Experiment: combination Emax (second highest fraction inhibited in the dose matrix, 72 h); higher = more inhibition; extreme values may be limits of the assay
Answers are plain numbers.

{"Compound": "COc1nnc2ccc(N3CCC(c4ccc(OCCN5CCN(C)C(=O)[C@H]5C)cc4)CC3)nn12 [AZD5153] + Cn1cnc2c(F)c(Nc3ccc(Br)cc3Cl)c(C(=O)NOCCO)cc21 [Selumetinib] (first compound max 1 µM, 7x7, partner max 10 µM)", "combination Emax": 1}
{"Compound": "C[C@@H](Nc1cc(F)cc(F)c1)c1cc(C(=O)N(C)C)cc2c(=O)cc(N3CCOCC3)oc12 [AZD8186] + C1CN(CCC1(C(=O)N[C@@H](CCO)C2=CC=C(C=C2)Cl)N)C3=NC=NC4=C3C=CN4 [AZD5363] (first compound max 10 µM, 7x7, partner max 10 µM)", "combination Emax": 0.436}
{"Compound": "CN(CCO)CC[C@H](CSc1ccccc1)Nc1ccc(S(=O)(=O)NC(=O)c2ccc(N3CCC([C@@H](O)c4ccccc4-c4ccc(Cl)cc4)CC3)cc2)cc1S(=O)(=O)C(F)(F)F [AZD4320] + CC(=O)O[C@H]1C(=O)[C@@]2(C)[C@H]([C@H](OC(=O)c3ccccc3)[C@]3(O)C[C@H](OC(=O)[C@H](O)[C@@H](NC(=O)c4ccccc4)c4ccccc4)C(C)=C1C3(C)C)[C@]1(OC(C)=O)CO[C@@H]1C[C@@H]2O [Paclitaxel] (first compound max 1 µM, 7x7, partner max 3 µM)", "combination Emax": 0.864}
{"Compound": "C=CCn1c(=O)c2cnc(Nc3ccc(N4CCN(C)CC4)cc3)nc2n1-c1cccc(C(C)(C)O)n1 [AZD1775] + O=C(c1cc(Cc2n[nH]c(=O)c3ccccc23)ccc1F)N1CCN(C(=O)C2CC2)CC1 [Olaparib] (first compound max 1 µM, partner max 10 µM)", "combination Emax": 0.438}

I have 2 compounds here; please give me combination Emax for each one.
1. Cc1c2c(nn1C)CSCc1cc(n(C)n1)CSc1cc(c3ccccc3c1)OCCCc1c(C(=O)O)n(C)c3c-2c(Cl)ccc13 [AZD5991] + CCN(CCO)CCCOc1ccc2c(Nc3cc(CC(=O)Nc4cccc(F)c4)[nH]n3)ncnc2c1 [AZD2811] (first compound max 1 µM, 7x7, partner max 1 µM)
2. CN(CCO)CC[C@H](CSc1ccccc1)Nc1ccc(S(=O)(=O)NC(=O)c2ccc(N3CCC([C@@H](O)c4ccccc4-c4ccc(Cl)cc4)CC3)cc2)cc1S(=O)(=O)C(F)(F)F [AZD4320] + C1CN(CCC1(C(=O)N[C@@H](CCO)C2=CC=C(C=C2)Cl)N)C3=NC=NC4=C3C=CN4 [Capivasertib] (first compound max 1 µM, 7x7, partner max 3 µM)

### Response
1: 0.445; 2: 0.257
